tested on: Escherichia coli TOP10; assay: shrunken log2 fold change of peptide-encoding DNA abundance (4.5 h post-induction vs induction); higher = less antimicrobial activity (less host growth inhibition); settings: time post-induction: 4.5 h; library: site-saturation at positions 5, 18, 19, 20

| chain | shrunken log2 fold change |
| --- | --- |
| RRIRWRPPRLPRPRPRPKPAPRP | 0.605 |
| RRIRYRPPRLPRPRPRPDTDPRP | -0.02 |
| RRIRWRPPRLPRPRPRPGFLPRP | 0.144 |
| RRIRNRPPRLPRPRPRPCHGPRP | -0.00208 |
| RRIRNRPPRLPRPRPRPPWAPRP | 0.38 |
| RRIRTRPPRLPRPRPRPAEIPRP | 0.083 |
| RRIRKRPPRLPRPRPRPMIKPRP | -0.0199 |
| RRIRIRPPRLPRPRPRPECQPRP | -0.00158 |
| RRIRGRPPRLPRPRPRPQIDPRP | 0.565 |
| RRIRIRPPRLPRPRPRPMCAPRP | -0.127 |
| RRIRRRPPRLPRPRPRPPKNPRP | 0.671 |
| RRIRLRPPRLPRPRPRPNTEPRP | 0.019 |
| RRIRLRPPRLPRPRPRPPPNPRP | 1.18 |
| RRIRHRPPRLPRPRPRPKQSPRP | -0.248 |
| RRIRDRPPRLPRPRPRPCVWPRP | 0.321 |
| RRIRWRPPRLPRPRPRPWGEPRP | 0.039 |
| RRIRWRPPRLPRPRPRPDKQPRP | 0.0432 |
| RRIRGRPPRLPRPRPRPCIPPRP | -0.165 |
| RRIRSRPPRLPRPRPRPPVPPRP | 0.378 |
| RRIRGRPPRLPRPRPRPVILPRP | -0.33 |
| RRIRTRPPRLPRPRPRPRNFPRP | 0.172 |
| RRIRFRPPRLPRPRPRPVYQPRP | -0.0402 |
| RRIRLRPPRLPRPRPRPAQVPRP | 0.324 |
| RRIRMRPPRLPRPRPRPFMQPRP | -0.00899 |
| RRIRQRPPRLPRPRPRPWDDPRP | -0.00146 |
| RRIRPRPPRLPRPRPRPLMYPRP | -0.318 |
| RRIRWRPPRLPRPRPRPMPEPRP | -0.236 |
| RRIRLRPPRLPRPRPRPTYHPRP | -0.358 |
| RRIRERPPRLPRPRPRPRGNPRP | -0.598 |
| RRIRIRPPRLPRPRPRPAGDPRP | 0.0386 |
| RRIRERPPRLPRPRPRPPKTPRP | -0.124 |
| RRIRARPPRLPRPRPRPETHPRP | 0.56 |

----------
Measured shrunken log2 fold change by item
test system: Escherichia coli TOP10; test: shrunken log2 fold change of peptide-encoding DNA abundance (4.5 h post-induction vs induction); higher = less antimicrobial activity (less host growth inhibition); settings: time post-induction: 4.5 h; library: site-saturation at positions 5, 18, 19, 20;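 further: peptides expressed intracellularly from a pBAD plasmid library in pooled LB shake-flask culture, induced with 0.3% L-arabinose, DNA abundance read by NGS, three biological replicates, DESeq2 with apeglm shrinkage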
reported_endpoint: shrunken log2 fold change

| chain | experimental_result |
| --- | --- |
| RRIRNRPPRLPRPRPRPYWYPRP | -0.177 |
| RRIRHRPPRLPRPRPRPSWWPRP | 0.348 |
| RRIRKRPPRLPRPRPRPQTDPRP | -0.00442 |
| RRIRWRPPRLPRPRPRPVVTPRP | 0.338 |
| RRIRDRPPRLPRPRPRPGDYPRP | 0.0583 |
| RRIRDRPPRLPRPRPRPMCEPRP | -0.0122 |
| RRIRTRPPRLPRPRPRPVKTPRP | 0.12 |
| RRIRTRPPRLPRPRPRPKTMPRP | -0.0972 |
| RRIRARPPRLPRPRPRPFEHPRP | 0.172 |
| RRIRMRPPRLPRPRPRPPGKPRP | 0.978 |
| RRIRNRPPRLPRPRPRPEMCPRP | 0.00911 |
| RRIRCRPPRLPRPRPRPAAHPRP | 0.37 |
| RRIRDRPPRLPRPRPRPVGPPRP | -0.286 |
| RRIRKRPPRLPRPRPRPFEHPRP | -0.0326 |
| RRIRHRPPRLPRPRPRPSFIPRP | -0.619 |
